Data provenance: patent US20130005944A1

- target: CXCR4 receptor (human, UniProt P61073 1-352)
- Sequence (P61073 whole entry): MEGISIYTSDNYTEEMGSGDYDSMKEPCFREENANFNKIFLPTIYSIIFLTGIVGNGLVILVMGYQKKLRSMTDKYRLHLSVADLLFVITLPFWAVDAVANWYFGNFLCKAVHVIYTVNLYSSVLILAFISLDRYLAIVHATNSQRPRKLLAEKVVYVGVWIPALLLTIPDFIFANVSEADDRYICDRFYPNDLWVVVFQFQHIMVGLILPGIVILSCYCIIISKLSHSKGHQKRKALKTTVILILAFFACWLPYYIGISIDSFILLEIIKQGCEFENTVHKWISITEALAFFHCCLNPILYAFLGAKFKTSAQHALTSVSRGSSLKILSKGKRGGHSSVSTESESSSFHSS
- assay-overview: cell-based or functional assay
Where no end group is shown, it is not given here. [ ]: non-standard residue; d: D form. The star is where a group is joined. Palmitoyl = CCCCCCCCCCCCCCCC(=O)*; Hyp = O=C(O)[C@@H]1C[C@@H](O)CN1; Nle = CCCC[C@H](N)C(=O)O; Dap = NC[C@H](N)C(=O)O
Field 'label' (enum: True / False). Set to True when EC50 (nM), calcium flux, CEM cells, agonist mode (Flexstation) is strictly under 100 nM; else False.

[Q] Dear reviewer, please state whether Palmitoyl-CGYQKKLRSATDKYRL (not fully specified) [Compound No. 30 (Pal-CGYQKKLRSATDKYRL)] has EC50 (nM), calcium flux, CEM cells, agonist mode (Flexstation) strictly beneath 100 nM.
[A] False

[Q] Dear reviewer, please state whether Pal-MGYQKKLRS[Nle]TDKYRL [Compound No. 17 (Pal-MGYQKKLRS(Nle)TDKYRL)] has EC50 (nM), calcium flux, CEM cells, agonist mode (Flexstation) strictly beneath 100 nM.
[A] False

[Q] Dear reviewer, please state whether Palmitoyl-MGYQKKLRPSMTDKYRL (not fully specified) [Compound No. 8 (Pal-MGYQKKLRPSMTDKYRL)] has EC50 (nM), calcium flux, CEM cells, agonist mode (Flexstation) strictly beneath 100 nM.
[A] False

[Q] Dear reviewer, please state whether Pal-GGYQKKLR[dP][Hyp]TDKYRL [Compound No. 36 (Pal-GGYQKKLRp(Hyp)TDKYRL)] has EC50 (nM), calcium flux, CEM cells, agonist mode (Flexstation) strictly beneath 100 nM.
[A] False

[Q] Dear reviewer, please state whether Pal-GGYQKKLR[dP][Dap]TDKYRL [Compound No. 34 (Pal-GGYQKKLRp(Dpr)TDKYRL)] has EC50 (nM), calcium flux, CEM cells, agonist mode (Flexstation) strictly beneath 100 nM.
[A] True

[Q] Dear reviewer, please state whether Pal-GGYQKKLR[dP]ATDKFRL [Compound No. 29 (Pal-GGYQKKLRpATDKFRL)] has EC50 (nM), calcium flux, CEM cells, agonist mode (Flexstation) strictly beneath 100 nM.
[A] True

[Q] Dear reviewer, please state whether Palmitoyl-GGYQKKLRTATDKYRL (not fully specified) [Compound No. 41 (Pal-GGYQKKLRTATDKYRL)] has EC50 (nM), calcium flux, CEM cells, agonist mode (Flexstation) strictly beneath 100 nM.
[A] False

[Q] Dear reviewer, please state whether Pal-GGYQKKLR[Hyp]HTDKYRL [Compound No. 35 (Pal-GGYQKKLR(Hyp)HTDKYRL)] has EC50 (nM), calcium flux, CEM cells, agonist mode (Flexstation) strictly beneath 100 nM.
[A] True
